Each item that follows carries a reported switch fluorescence ratio.
test system: ATP; assay: switch fluorescence ratio, 500 uM ATP over buffer (Cy3 cluster intensity, sum of 5 cycles each) (fold (ratio)); higher = stronger signal-on switching upon ATP binding; sequences stand for … in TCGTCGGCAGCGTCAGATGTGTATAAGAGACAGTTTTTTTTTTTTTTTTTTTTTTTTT…TC; details: aptamer strand: ATP DNA aptamer (quencher-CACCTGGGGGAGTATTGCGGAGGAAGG + anchor), 100 nM annealed; ATP concentration: 500 uM;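 also: ATP exposure 15 min at 22 °C before imaging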
Form rule: numeric answer, no unit written next to it.

What value of switch fluorescence ratio has been reported for the following sequence? AGGGGCACGA 1.03

Next sequence up: GGCATGTTTG 0.992

Let us now turn to TGATATTGGT 1.01

# repeat for TGCGAATTCT 1.03

What would you report for TTGGGACAGC ? 1

Okay, and GGGGGAGCTT ? 0.983

Let us now turn to GGATGCGGGA 0.98

Request: CAGAGTTTCT 1.02

Same question, TGGAAGCGTC this time 1.02

Moving on to the next sequence: GTTCCCAGGA 1.09

***
I am curious: what switch fluorescence ratio value has been reported for CGGTGGATTC ? 1

Same lookup for AGGTTTAAGG , please. 0.973

Next sequence: GGGGAGGGAG 1.01

Record: TGACACAGGA 1.04

And then AGTTTTATTG , what is it? 0.993

* * *

system: ATP; assay: switch fluorescence ratio, 500 uM ATP over buffer (Cy3 cluster intensity, sum of 5 cycles each) (fold (ratio)); higher = stronger signal-on switching upon ATP binding; sequences stand for … in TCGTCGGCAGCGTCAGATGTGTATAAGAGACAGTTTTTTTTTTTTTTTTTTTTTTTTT…TC; settings: aptamer strand: ATP DNA aptamer (quencher-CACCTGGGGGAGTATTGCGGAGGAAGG + anchor), 100 nM annealed; ATP concentration: 500 uM;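 also: ATP exposure 15 min at 22 °C before imaging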
outcomeMeasure: switch fluorescence ratio
Keep it simple and answer with nothing but the number.

Here's what some known entries look like.
Field request: switch fluorescence ratio | item: CAACGGTTTC 1.01

// same read-out, input: CAAATGGGAA 0.99

Same thing, different sequence: AGGACGGTAG 0.992

One more sequence: TTAGTACATG 0.976

Continue with TCGAAAAGGA 1.02

Next sequence up: AGGCGATCGG 0.99

***
Suppose we examine the sequence GGGGCAGTGT ; what switch fluorescence ratio value has been reported? 0.991

Note, next up: TGGGGTAGTG 1.01

* * *

system: ATP; assay: switch fluorescence ratio, 500 uM ATP over buffer (Cy3 cluster intensity, sum of 5 cycles each) (fold (ratio)); higher = stronger signal-on switching upon ATP binding; sequences stand for … in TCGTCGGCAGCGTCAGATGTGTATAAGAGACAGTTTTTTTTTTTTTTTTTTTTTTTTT…TC; settings: aptamer strand: ATP DNA aptamer (quencher-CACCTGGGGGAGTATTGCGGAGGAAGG + anchor), 100 nM annealed; ATP concentration: 500 uM;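 also: ATP exposure 15 min at 22 °C before imaging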
outcomeMeasure: switch fluorescence ratio
Just the number, please, no unit after it.

Check out these entries, answers already filled in.
Look up switch fluorescence ratio: TGCACGATTG 1.03

Now this one: TATAGTGCGT 0.978

# iterate: TTTGCACGTT 1.03

Repeat with CACTGGAGGG 0.994

Entry to check: GCGGGTAGCA 1.04

Others:
So what does the record say about switch fluorescence ratio for CAGGACTCCG ? 0.98

Let us now turn to ATGTATCAGG 1.03

Another sequence to look at: AGCAGGGGGT 1.05

Now consider ATGGGCGGGG . 0.995

Then this sequence: CCATTTGAGG 0.987

Please do the same for ATATGTTTG as well. 0.973

Record: ACATAAGTGG 1.01

// same read-out, input: TACCCCGGTA 1.04

# iterate: GGGAAGAGGT 0.988

What about this sequence? GCTCTATGAC 1.08

Another sequence to check: AATGCGGTAT 1.01

Cool, now AAAATTTTTA 1

Entry CGAATTTTTG please 0.982

Further, for CGGGGGGACG ? 1.01

Would you mind doing AGAATCTTGC as well? 1.17

Here is the next sequence: AATGGGGGAG 0.981

Queued: GCATTCCGTT 1.02

What do you have for TATTTAGTTT ? 1.01

Where do these numbers come from? They come from the supplement of paper PMC10126150.
